Attribution: PubChem BioAssay AID226

The following molecules are listed with their measured T/C values.
- Tested on: B6C3F1 mice, intracerebral ependymoblastoma, median survival T/C
- procedure_text: NCI In Vivo Anticancer Drug Screen. Data for tumor model Ependymoblastoma (intracerebral) in B6C3F1 mice
- condition_description: endpoint: median survival time; dose: 64.0 mg/kg/injection; schedule: Q01DX005 (ip); vehicle: saline; higher = longer survival
- Method: The antitumor activity of compounds was measured in mice bearing transplantable tumors. Survival or tumor size were measured and the results are expressed as the measurement made in the treated group (T) divided by the measurement made in the vehicle treated control group (C). The tumor model used in this assay is Ependymoblastoma (intracerebral) in B6C3F1 mice
Inconclusive results and toxic doses are left out.

molecule="O=c1ccn(C2OC(CO)C(O)C2O)c(=O)[nH]1 (stereo unspecified)" measurement_label=T/C obs_value="109 % of control"
molecule="CN1CCC23c4c5ccc(O)c4OC2C(O)C=CC3C1C5 (stereo unspecified)" measurement_label=T/C obs_value="101 % of control"

Prompt: Need T/C, item "COS(C)(=O)=O"
Completion: 100 % of control

Prompt: Again, but for Nc1ccn(C2OC(COP(=O)(O)O)C(O)C2O)c(=O)n1 (stereo unspecified)
Completion: 107 % of control

Prompt: Again, but for "F"
Completion: 105 % of control

Prompt: Again, but for "CN=NNc1nc[nH]c1C(N)=O"
Completion: 123 % of control

###

- Test system: B6C3F1 mice, intracerebral ependymoblastoma, median survival T/C
- procedure_text: NCI In Vivo Anticancer Drug Screen. Data for tumor model Ependymoblastoma (intracerebral) in B6C3F1 mice
- condition_description: endpoint: median survival time; dose: 1.0 mg/kg/injection; schedule: Q01DX005 (ip); vehicle: Klucel (hydroxypropylcellulose) (HPC); higher = longer survival
Inconclusive results and toxic doses are left out.
The following molecules are listed with their measured T/C values.

Solved cases (3 shown):
molecule=O=C1NC2(CCCCC2)C(=O)N1CCN(CCCl)CCCl obs_value="116 % of control"
molecule="O=NN(CCCl)C(=O)NC1CCC(=O)NC1=O (configuration not stated)" obs_value="114 % of control"
molecule=O=C(O)CCCc1ccc(N(CCCl)CCCl)cc1 obs_value="114 % of control"

Prompt: Kindly state the measured T/C obtained for O=CC(NC(=O)N(CCCl)N=O)C(O)C(O)C(O)CO (configuration not stated) with B6C3F1 mice, intracerebral ependymoblastoma, median survival T/C.
Completion: 108 % of control

Prompt: Again, but for CCOC(=O)C(CC(C)C)NC(=O)C(Cc1ccc(N(CCCl)CCCl)cc1)NC(C)=O (configuration not stated)
Completion: 87 % of control

Prompt: Again, but for COc1ccc(CC2C(=O)NC(C)C(=O)N(C)C3C(=O)N(C)C(Cc4ccc(O)c(c4)Oc4ccc(cc4)C3O)C(=O)NC(C)C(=O)NC(C)C(=O)N2C)cc1 (configuration not stated)
Completion: 106 % of control

Prompt: Again, but for "COc1cc(NS(C)(=O)=O)ccc1Nc1c2ccccc2nc2ccccc12"
Completion: 110 % of control

###

- Test system: B6C3F1 mice, intracerebral ependymoblastoma, median survival T/C
- procedure_text: NCI In Vivo Anticancer Drug Screen. Data for tumor model Ependymoblastoma (intracerebral) in B6C3F1 mice
- condition_description: endpoint: median survival time; dose: 400.0 mg/kg/injection; schedule: Q01DX005 (ip); vehicle: Klucel (hydroxypropylcellulose) (HPC); higher = longer survival
Inconclusive results and toxic doses are left out.
measurement_label: T/C

compound=CC(=O)Nc1ccc(/C=N/NC(N)=S)cc1 obs_value="91 % of control"
compound=COc1ccc2cc1Oc1ccc(cc1)C[C@H]1c3cc(c(OC)cc3CCN1C)Oc1c(OC)c(OC)cc3c1[C@H](C2)N(C)CC3 obs_value="91 % of control"
compound="ClC1C(Cl)C(Cl)C(Cl)C(Cl)C1Cl (centres undefined)" obs_value="107 % of control"

Kindly consider the entry below.
Prompt: Need T/C, item NC(=O)c1ncn(C2OC(CO)C(O)C2O)c1O (centres undefined)
Completion: 111 % of control
